Listed compounds paired with reported Fold Induction Average, 13B3 Assay (33 μM)
- Assayed system: GAL4 DBD-CfEcR(DEF)/VP16AD-MmRXRE (Choristoneura fumiferana, UniProt O77240)
- Sequence (O77240 1-513): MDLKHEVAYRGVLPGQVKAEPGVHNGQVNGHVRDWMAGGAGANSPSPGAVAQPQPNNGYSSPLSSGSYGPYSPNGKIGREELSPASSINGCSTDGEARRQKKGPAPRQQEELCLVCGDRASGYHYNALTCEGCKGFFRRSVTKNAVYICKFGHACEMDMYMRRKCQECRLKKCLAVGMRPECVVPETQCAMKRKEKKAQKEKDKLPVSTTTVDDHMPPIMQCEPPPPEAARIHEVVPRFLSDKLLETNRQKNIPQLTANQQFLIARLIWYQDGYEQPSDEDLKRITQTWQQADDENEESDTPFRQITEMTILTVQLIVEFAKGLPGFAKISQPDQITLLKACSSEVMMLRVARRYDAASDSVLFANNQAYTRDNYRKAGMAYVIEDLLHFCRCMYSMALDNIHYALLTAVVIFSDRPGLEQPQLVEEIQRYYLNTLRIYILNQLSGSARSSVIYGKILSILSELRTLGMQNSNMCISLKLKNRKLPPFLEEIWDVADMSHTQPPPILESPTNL
- Test summary: cell-based
Metric name: Fold Induction Average, 13B3 Assay (33 μM)

{"Compound": "CC(C)(NC(=O)c1ccc2c(c1)OCO2)C(=O)c1ccccc1", "Assayed system": "GAL4 DBD-CfEcR(DEF)/VP16AD-MmRXRE (Choristoneura fumiferana, UniProt O77240)", "Observed value": 3}
{"Compound": "CC(C)(NC(=O)c1ccccc1)C(=O)c1ccccc1", "Assayed system": "GAL4 DBD-CfEcR(DEF)/VP16AD-MmRXRE (Choristoneura fumiferana, UniProt O77240)", "Observed value": 0}
{"Compound": "COc1ccccc1C(=O)NC(C)(C)C(=O)c1cccc(C)c1", "Assayed system": "GAL4 DBD-CfEcR(DEF)/VP16AD-MmRXRE (Choristoneura fumiferana, UniProt O77240)", "Observed value": 4}
{"Compound": "COc1cccc(C(=O)NC(C)(CC(C)C)C(=O)c2ccc(F)c(C)c2)c1C (stereo not shown)", "Assayed system": "GAL4 DBD-CfEcR(DEF)/VP16AD-MmRXRE (Choristoneura fumiferana, UniProt O77240)", "Observed value": 0}
{"Compound": "CCC(CC)(NC(=O)c1cccc(OC)c1C)C(=O)c1ccc2c(c1)OCO2", "Assayed system": "GAL4 DBD-CfEcR(DEF)/VP16AD-MmRXRE (Choristoneura fumiferana, UniProt O77240)", "Observed value": 0}
{"Compound": "COc1cccc(C(=O)NC2(C(=O)c3ccc(F)c(C)c3)CC2)c1C", "Assayed system": "GAL4 DBD-CfEcR(DEF)/VP16AD-MmRXRE (Choristoneura fumiferana, UniProt O77240)", "Observed value": 0}
{"Compound": "COc1cccc(C(=O)NC2(C(=O)c3ccc4c(c3)OCO4)CCCC2)c1C", "Assayed system": "GAL4 DBD-CfEcR(DEF)/VP16AD-MmRXRE (Choristoneura fumiferana, UniProt O77240)", "Observed value": 2}
{"Compound": "COc1cccc(C(=O)NC2(C(=O)c3cccc(C)c3)CC2)c1C", "Assayed system": "GAL4 DBD-CfEcR(DEF)/VP16AD-MmRXRE (Choristoneura fumiferana, UniProt O77240)", "Observed value": 0}
{"Compound": "COc1cccc(C(=O)NC(C)(C)C(=O)c2ccccc2)c1", "Assayed system": "GAL4 DBD-CfEcR(DEF)/VP16AD-MmRXRE (Choristoneura fumiferana, UniProt O77240)", "Observed value": 2}
{"Compound": "COc1ccc(C(=O)C(C)(CC(C)C)NC(=O)c2cccc(OC)c2C)cc1 (stereo not shown)", "Assayed system": "GAL4 DBD-CfEcR(DEF)/VP16AD-MmRXRE (Choristoneura fumiferana, UniProt O77240)", "Observed value": 0}
{"Compound": "COc1cccc(C(=O)NC(C(=O)c2cccc(C)c2)(c2ccccc2)C(C)C)c1C (stereo not shown)", "Assayed system": "GAL4 DBD-CfEcR(DEF)/VP16AD-MmRXRE (Choristoneura fumiferana, UniProt O77240)", "Observed value": 0}
{"Compound": "CC(C)(C)C(NC(=O)c1ccc([N+](=O)[O-])cc1)C(=O)c1ccccc1 (stereo not shown)", "Assayed system": "GAL4 DBD-CfEcR(DEF)/VP16AD-MmRXRE (Choristoneura fumiferana, UniProt O77240)", "Observed value": 0}
{"Compound": "CCC(CC)(NC(=O)c1cccc(OC)c1C)C(=O)c1ccccc1C", "Assayed system": "GAL4 DBD-CfEcR(DEF)/VP16AD-MmRXRE (Choristoneura fumiferana, UniProt O77240)", "Observed value": 0}
{"Compound": "COc1cccc(C(=O)NC2(C(=O)c3ccc4c(c3)OCO4)CCCCC2)c1C", "Assayed system": "GAL4 DBD-CfEcR(DEF)/VP16AD-MmRXRE (Choristoneura fumiferana, UniProt O77240)", "Observed value": 3}
{"Compound": "COc1cccc(C(=O)C2(NC(=O)c3cccc(OC)c3C)CC2)c1", "Assayed system": "GAL4 DBD-CfEcR(DEF)/VP16AD-MmRXRE (Choristoneura fumiferana, UniProt O77240)", "Observed value": 0}
{"Compound": "Cc1cccc(C(=O)NC(C(=O)c2ccccc2)C(C)(C)C)c1C (stereo not shown)", "Assayed system": "GAL4 DBD-CfEcR(DEF)/VP16AD-MmRXRE (Choristoneura fumiferana, UniProt O77240)", "Observed value": 0}
{"Compound": "CC(=O)NC(C(=O)c1ccc(C)cc1)c1ccccc1 (stereo not shown)", "Assayed system": "GAL4 DBD-CfEcR(DEF)/VP16AD-MmRXRE (Choristoneura fumiferana, UniProt O77240)", "Observed value": 0}
{"Compound": "CCc1ccc(C(=O)NC(C)(C)C(=O)c2ccccc2)cc1", "Assayed system": "GAL4 DBD-CfEcR(DEF)/VP16AD-MmRXRE (Choristoneura fumiferana, UniProt O77240)", "Observed value": 1}
{"Compound": "Cc1ccccc1C(=O)NC(C)(C)C(=O)c1ccccc1", "Assayed system": "GAL4 DBD-CfEcR(DEF)/VP16AD-MmRXRE (Choristoneura fumiferana, UniProt O77240)", "Observed value": 3}
